system: HeLa Kyoto; experiment: solubility in G1/S (NP-40 vs SDS abundance) (log2 ratio); higher = more soluble; conditions: cell cycle stage: G1/S;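 further: HeLa Kyoto cells arrested at G1/S by double thymidine block, proteins quantified by TMT10plex mass spectrometry in mild NP-40 versus SDS extracts, three biological replicates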
Outcome measure: solubility in G1/S (log2)
Answer with a bare number; do not write a unit.

MSSARFDSSDRSAWYMGPVSRQEAQTRLQGQRHGMFLVRDSSTCPGDYVLSVSENSRVSHYIINSLPNRRFKIGDQEFDHLPALLEFYKIHYLDTTTLIEPAPRYPSPPMGSVSAPNLPTAEDNLEYVRTLYDFPGNDAEDLPFKKGEILVIIEKPEEQWWSARNKDGRVGMIPVPYVEKLVRSSPHGKHGNRNSNSYGIPEPAHAYAQPQTTTPLPAVSGSPGAAITPLPSTQNGPVFAKAIQKRVPCAYDKTALALEVGDIVKVTRMNINGQWEGEVNGRKGLFPFTHVKIFDPQNPDENE [CRKL]
0.543

Fill in: solubility in G1/S (log2) of MKFRAKIVDGACLNHFTRISNMIAKLAKTCTLRISPDKLNFILCDKLANGGVSMWCELEQENFFNEFQMEGVSAENNEIYLELTSENLSRALKTAQNARALKIKLTNKHFPCLTVSVELLSMSSSSRIVTHDIPIKVIPRKLWKDLQEPVVPDPDVSIYLPVLKTMKSVVEKMKNISNHLVIEANLDGELNLKIETELVCVTTHFKDLGNPPLASESTHEDRNVEHMAEVHIDIRKLLQFLAGQQVNPTKALCNIVNNKMVHFDLLHEDVSLQYFIPALS [HUS1] is ___
0.0659

One more sequence: MAEVSIDQSKLPGVKEVCRDFAVLEDHTLAHSLQEQEIEHHLASNVQRNRLVQHDLQVAKQLQEEDLKAQAQLQKRYKDLEQQDCEIAQEIQEKLAIEAERRRIQEKKDEDIARLLQEKELQEEKKRKKHFPEFPATRAYADSYYYEDGGMKPRVMKEAVSTPSRMAHRDQEWYDAEIARKLQEEELLATQVDMRAAQVAQDEEIARLLMAEEKKAYKKAKEREKSSLDKRKQDPEWKPKTAKAANSKSKESDEPHHSKNERPARPPPPIMTDGEDADYTHFTNQQSSTRHFSKSESSHKGFHYKH [CCDC50]
0.334
